Data provenance is patent US20260317324A1.

- measured.target: BRAF V600E (Homo sapiens, UniProt P15056, V600E)
- Construct: endogenous C-terminal HiBiT fusion tag on BRAF V600E allele; endogenous in cells; host or cells: A375 clone 1F10 (CRISPR-Cas9 knock-in of the HiBiT tag; parental A375 from ATCC)
- Sequence (P15056 whole entry V600E, the tested form may be a part): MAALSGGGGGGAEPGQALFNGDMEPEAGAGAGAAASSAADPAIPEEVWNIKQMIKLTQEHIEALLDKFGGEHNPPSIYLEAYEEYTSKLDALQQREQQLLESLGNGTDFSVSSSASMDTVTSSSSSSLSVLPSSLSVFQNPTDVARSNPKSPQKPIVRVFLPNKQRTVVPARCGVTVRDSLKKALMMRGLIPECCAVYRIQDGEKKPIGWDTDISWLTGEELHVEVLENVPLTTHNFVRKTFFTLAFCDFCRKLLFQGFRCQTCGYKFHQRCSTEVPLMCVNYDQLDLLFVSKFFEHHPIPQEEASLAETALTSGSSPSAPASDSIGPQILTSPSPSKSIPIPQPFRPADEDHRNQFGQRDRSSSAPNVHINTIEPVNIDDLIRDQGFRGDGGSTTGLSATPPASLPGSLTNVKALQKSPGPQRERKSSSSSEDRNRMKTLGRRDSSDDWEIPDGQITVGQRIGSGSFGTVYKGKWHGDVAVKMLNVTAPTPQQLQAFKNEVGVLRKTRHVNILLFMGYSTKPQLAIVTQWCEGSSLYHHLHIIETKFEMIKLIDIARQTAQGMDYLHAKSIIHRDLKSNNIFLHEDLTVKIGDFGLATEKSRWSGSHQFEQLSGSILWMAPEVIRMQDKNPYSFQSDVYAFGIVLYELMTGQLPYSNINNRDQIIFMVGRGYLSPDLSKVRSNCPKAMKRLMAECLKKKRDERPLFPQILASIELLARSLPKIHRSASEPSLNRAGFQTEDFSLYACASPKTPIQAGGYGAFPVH
- protocol.description: BRAF HiBiT degradation assay, C-terminal HiBiT-tagged BRAF V600E A375 cells (clone 1F10), Nano-Glo HiBiT Lytic assay
- Type: cell-based
- protocol.conditions: A-375; A375 (BRAF V600E); percentage protein degraded at maximal compound effect relative to DMSO
measure: Dmax

- molecule: "CCCS(=O)(=O)Nc1cccc(-c2nc(C3CCN(C(=O)CN4CCC5(CC4)CN(c4ccc6c(c4)C(=O)N(C4CCC(=O)NC4=O)C6=O)C5)CC3)sc2-c2ccnc(NC)n2)c1F (racemic)"
  Dmax: "> 70%"
- molecule: "CCCS(=O)(=O)Nc1cccc(-c2nc(C(C)(C)C)sc2-c2ccnc(Nc3cnn(CC4CCN(C(=O)CN5CCc6cc(C7CCC(=O)NC7=O)ccc6C5)CC4)c3)n2)c1F (racemic)"
  Dmax: "> 70%"
- molecule: "CCCS(=O)(=O)Nc1cccc(-c2nc(C3CCN(C(=O)C4CCN(CC5CCN(c6ccc(C7CCC(=O)NC7=O)cn6)CC5)CC4)CC3)sc2-c2ccnc(NC)n2)c1F (racemic)"
  Dmax: "> 70%"
- molecule: "CCCS(=O)(=O)Nc1cccc(-c2nc(C(C)(C)C)sc2-c2ccnc(NC3CC4(C3)CN(CC3CCN(C(=O)C5CCN(c6ccc(C7CCC(=O)NC7=O)cc6)CC5)CC3)C4)n2)c1F (racemic)"
  Dmax: "> 70%"

// returns reported Dmax for input CCCS(=O)(=O)Nc1cccc(-c2nc(C3CCN(C(=O)C4(C)CCN(C(=O)C5CCN(c6ccc(C7CCC(=O)NC7=O)cc6)CC5)CC4)CC3)sc2-c2ccncn2)c1F (racemic)
> 70%
